# Study target: GDP-bound KRAS wild-type protein (Homo sapiens, UniProt P01116)
# Sequence (P01116 1-188 isoform P01116-2): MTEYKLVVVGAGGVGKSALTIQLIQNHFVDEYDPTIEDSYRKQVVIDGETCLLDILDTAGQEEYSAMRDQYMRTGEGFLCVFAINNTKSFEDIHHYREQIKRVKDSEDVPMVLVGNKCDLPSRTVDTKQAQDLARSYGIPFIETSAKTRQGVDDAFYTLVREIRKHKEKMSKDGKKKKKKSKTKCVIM
# Test name: Binding to KRAS by surface plasmon resonance (SPR), dissociation constant KD
# Measurement conditions: Single Cycle Kinetics, 1:1 binding model
Test readout: pKd
A value of pKd is the negative decimal logarithm of a concentration given in moles per litre.

>>> result("CC[C@H](C)[C@@H]1NC(=O)[C@H](CC)N(C)C(=O)C[C@@H](C(=O)N2CCOCC2)N(C)C(=O)[C@H](C2CCCC2)N(C)C(=O)C2(CCCC2)NC(=O)[C@@H]2CCCN2C(=O)[C@H](CCc2cc(F)c(C(F)(F)F)c(F)c2)NC(=O)CN(C)C(=O)[C@H](Cc2ccc(C(F)(F)F)cc2)N2C[C@H](C)[C@H](C)C[C@@H](C2=O)N(C)C(=O)CN(C)C1=O [PP1365]")
9.89
>>> result("CCO[C@@H]1C[C@H]2C(=O)NC3(CCC3)C(=O)N(C)[C@@H](C3CCCC3)C(=O)N(C)[C@H](C(=O)N3CCCCC3)CC(=O)N(C)[C@@H](CC)C(=O)N[C@@H]([C@@H](C)CC)C(=O)N(C)CC(=O)N(C)[C@H]3C/C=C\\CCN(C3=O)[C@@H](Cc3ccc(C(F)(F)F)cc3)C(=O)N(C)CC(=O)N[C@@H](CCc3cc(F)c(C(F)(F)F)c(F)c3)C(=O)N2C1 [PP1289]")
9.77
>>> result("CCCN(C)C(=O)[C@@H]1CC(=O)N(C)[C@@H](CCOC)C(=O)N[C@@H]([C@@H](C)CC)C(=O)N(C)CC(=O)N(C)[C@H]2C/C=C\\CCN(C2=O)[C@@H](Cc2ccc(C(F)(F)F)cc2)C(=O)N(C)CC(=O)N[C@@H](CCc2ccc(C(F)(F)F)c(OC)c2)C(=O)N2C[C@@H](C)C[C@H]2C(=O)NC2(CCC2)C(=O)N(C)[C@@H](C2CCCC2)C(=O)N1C [PP2029]")
10.16
>>> result("CCO[C@@H]1C[C@H]2C(=O)NC3(CCC3)C(=O)N(C)[C@@H](C3CCCC3)C(=O)N(CCc3ccccc3)[C@H](C(=O)N3CCOCC3)CC(=O)N(C)[C@@H](CC(C)C)C(=O)N[C@@H]([C@@H](C)CC)C(=O)N(C)CC(=O)N(C)[C@H]3CCCCCN(C3=O)[C@@H](Cc3ccc(C(F)(F)F)cc3)C(=O)N(C)CC(=O)N[C@@H](CCc3cc(F)c(C(F)(F)F)c(F)c3)C(=O)N2C1 [PP0642]")
6.96
>>> result("CCCN(C)C(=O)[C@@H]1CC(=O)N(C)[C@@H](CC(F)F)C(=O)N[C@@H]([C@@H](C)CC)C(=O)N(C)CC(=O)N(C)[C@H]2C/C=C\\CCN(C2=O)[C@@H](Cc2ccc(C(F)(F)F)cc2)C(=O)N(C)CC(=O)N[C@@H](CCc2ccc(C(F)(F)F)c(OC)c2)C(=O)N2C[C@@H](C)C[C@H]2C(=O)NC2(CCC2)C(=O)N(C)[C@@H](C2CCCC2)C(=O)N1C [PP2024]")
10.09

// next item, pKd requested
Find the recorded pKd belonging to CCO[C@@H]1C[C@H]2C(=O)NC3(CCC3)C(=O)N(C)[C@@H](C3CCCC3)C(=O)N(C)[C@H](C(=O)N3CCOCC3)CC(=O)N(C)[C@@H](CC(C)C)C(=O)N[C@@H]([C@@H](C)CC)C(=O)N3CC[C@H]3C(=O)N(C)[C@H]3CC[C@@H](C)CN(C3=O)[C@@H](Cc3ccc(C(F)(F)F)cc3)C(=O)N(C)CC(=O)N[C@@H](CCc3ccc(C(F)(F)F)c(Cl)c3)C(=O)N2C1 [PP1379] and report it.
9.54
